- assay.notes: DRUGMATRIX: Atrial Natriuretic Factor (ANF) radioligand binding (ligand: [125I] ANF (rat))
- Assay type: cell membranes, Cavia porcellus, Dunkin-Hartley, Adrenal gland, Membrane
- setup.conditions: Not Active = under 50% inhibition at 10 µM
test.readout: Ki

• O=C(O)c1cc(-c2ccc(F)cc2F)ccc1O = Not Active
• CN(C)C(=O)Oc1cccc([N+](C)(C)C)c1.[Br-] [NEOSTIGMINE BROMIDE] = Not Active
• CC(C)NCC(O)c1ccccc1Cl (configuration not stated) = Not Active
• C[C@]12CC[C@H]3[C@@H](CCC4=CC(=O)CC[C@@H]43)[C@@H]1CC[C@@H]2O = Not Active
• N[C@@H](Cn1ccc(=O)c(O)c1)C(=O)O = Not Active
• CS(=O)(=O)Nc1ccc([N+](=O)[O-])cc1Oc1ccccc1 [NIMESULIDE] = Not Active
• CN1C[C@@H]2C[C@H]1CN2c1cc2c(cc1F)c(=O)c(C(=O)O)cn2C1CC1 = Not Active
• CC[C@]1(O)C[C@@H]2CN(CCc3c([nH]c4ccccc34)[C@@](C(=O)OC)(c3cc4c(cc3OC)N(C)[C@H]3[C@@](O)(C(N)=O)[C@H](O)[C@]5(CC)C=CCN6CC[C@]43[C@@H]65)C2)C1 = Not Active
• C[C@H]1O[C@H](O[C@H]2[C@H](O)[C@@H](O)[C@@H](O[C@H]3[C@H](O)[C@@H](O)C(O)O[C@@H]3CO)O[C@@H]2CO)[C@H](O)[C@@H](O)[C@@H]1N[C@H]1C=C(CO)[C@@H](O)[C@H](O)[C@H]1O (some centres not stated) = Not Active
• O=C(O)CCCc1cccs1 = Not Active
• NC(=O)c1cccc(N)c1 [3-AMINOBENZAMIDE] = Not Active
• CC(=O)OCC(=O)[C@@]1(O)CC[C@H]2[C@@H]3CCC4=CC(=O)CC[C@]4(C)[C@@]3(F)[C@@H](O)C[C@@]21C [FLUDROCORTISONE ACETATE] = Not Active
• CCN(C(C)=O)c1cccc(-c2ccnc3c(C#N)cnn23)c1 = Not Active
• C[S+](C)[O-] [DIMETHYL SULFOXIDE] = Not Active
• O=C(O)CCCCC1CCSS1 (configuration not stated) = Not Active
• CC(=O)Oc1ccccc1C(=O)O = Not Active
• C[C@]12CC[C@@H]3c4ccc(O)cc4CC[C@H]3[C@@H]1C[C@@H](O)[C@@H]2O = Not Active
• CCc1ccc(CCOc2ccc(CC3SC(=O)NC3=O)cc2)nc1 (configuration not stated) = Not Active
• CC(=O)OC[C@H]1O[C@@H](n2ncc(=O)[nH]c2=O)[C@H](OC(C)=O)[C@@H]1OC(C)=O = Not Active
• C[C@]12C=CC(=O)C=C1CC[C@@H]1[C@@H]2C(=O)C[C@@]2(C)[C@H]1CC[C@]2(O)C(=O)CO = Not Active
• COc1ccc2c(c1OC)C(=O)O[C@@H]2[C@H]1c2c(cc3c(c2OC)OCO3)CCN1C = Not Active
• COC(=O)[C@H]1[C@H]2C[C@@H]3c4[nH]c5cc(OC)ccc5c4CCN3C[C@H]2C[C@@H](OC(=O)c2cc(OC)c(OC)c(OC)c2)[C@@H]1OC = Not Active
• NC(=O)N1c2ccccc2CC(=O)c2ccccc21 [OXCARBAZEPINE] = Not Active
• CCOC(=O)c1ncn2c1CN(C)C(=O)c1cc(F)ccc1-2 = Not Active
• COc1cc(OC)c(C(=O)CCCN2CCCC2)c(OC)c1 = Not Active
• C[C@@H]1O[C@@H](O[C@H]2C[C@@H](O)[C@]3(CO)[C@H]4[C@H](O)C[C@]5(C)[C@@H](C6=CC(=O)OC6)CC[C@]5(O)[C@@H]4CC[C@]3(O)C2)[C@H](O)[C@H](O)[C@H]1O = Not Active
• CC1CCC(NC(=O)N(CCCl)N=O)CC1 (configuration not stated) = Not Active
• CO/N=C(\C(=O)N[C@@H]1C(=O)N2C(C(=O)O)=C(COC(C)=O)CS[C@H]12)c1csc(N)n1 = Not Active
• N=C(N)c1ccc(OCCCCCOc2ccc(C(=N)N)cc2)cc1 = Not Active
• Nc1cc(-c2ccncc2)c[nH]c1=O = Not Active
• O=C1C[C@@H]2OCC=C3CN4CC[C@]56c7ccccc7N1[C@H]5[C@H]2[C@H]3C[C@H]46 = Not Active
• CC(C)c1c(C(=O)Nc2ccccc2)c(-c2ccccc2)c(-c2ccc(F)cc2)n1CC[C@@H](O)C[C@@H](O)CC(=O)O = Not Active

###

- system.name: D(1A) dopamine receptor (Homo sapiens, UniProt P21728)
- Sequence (P21728 whole entry): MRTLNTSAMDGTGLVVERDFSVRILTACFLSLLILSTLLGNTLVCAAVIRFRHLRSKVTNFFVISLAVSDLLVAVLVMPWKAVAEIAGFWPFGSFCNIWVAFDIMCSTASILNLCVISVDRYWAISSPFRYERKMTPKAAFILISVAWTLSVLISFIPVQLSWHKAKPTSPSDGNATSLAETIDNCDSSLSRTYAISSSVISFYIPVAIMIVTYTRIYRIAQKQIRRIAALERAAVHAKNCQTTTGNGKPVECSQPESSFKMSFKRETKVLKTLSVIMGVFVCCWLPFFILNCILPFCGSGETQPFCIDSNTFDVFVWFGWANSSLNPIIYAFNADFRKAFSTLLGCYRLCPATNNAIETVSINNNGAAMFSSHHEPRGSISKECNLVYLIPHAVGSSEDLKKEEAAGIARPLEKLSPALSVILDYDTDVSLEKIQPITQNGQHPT
- assay.notes: DRUGMATRIX: Dopamine D1 radioligand binding (ligand: [3H] SCH-23390)
- Type: cell membranes, CHO, Membrane
- setup.conditions: Not Active = under 50% inhibition at 10 µM; read-out: IC50
pIC50: −log10 of the molar value.
test.readout: pIC50

* CN(C)CCC=C1c2ccccc2CCc2ccccc21 [AMITRIPTYLINE] | 6.45
* CC(C)C[C@H]1C(=O)N2CCC[C@H]2[C@]2(O)O[C@](NC(=O)[C@@H]3C=C4c5cccc6[nH]cc(c56)C[C@H]4N(C)C3)(C(C)C)C(=O)N12 [ERGOCRYPTINE] | 6.39
* CN1CCC(=C2c3ccccc3CC(=O)c3sccc32)CC1 [KETOTIFEN] | 6.06

###

- assay.notes: DRUGMATRIX: GABAA, Flunitrazepam, Central radioligand binding (ligand: [3H] Flunitrazepam)
- Assay type: cell membranes, Rattus norvegicus, Wistar, Brain, Membrane
- setup.conditions: Not Active = under 50% inhibition at 10 µM; read-out: Ki
pKi: −log10 of the molar value.
pKi overview
test.readout: pKi

• CN1C(=O)CN=C(c2ccccc2)c2cc([N+](=O)[O-])ccc21 = 7.07
• CNC1=Nc2ccc(Cl)cc2C(c2ccccc2)=[N+]([O-])C1 [CHLORDIAZEPOXIDE] = 5.93
• CCN(C(C)=O)c1cccc(-c2ccnc3c(C#N)cnn23)c1 = 6.47
• CCOC(=O)c1ncn2c1CN(C)C(=O)c1cc(F)ccc1-2 = 8.50

###

- system.name: C-C chemokine receptor type 5 (Homo sapiens); further: in other assays of this panel Not Active means under 50% inhibition at 10 µM
- Sequence (P51681 whole entry): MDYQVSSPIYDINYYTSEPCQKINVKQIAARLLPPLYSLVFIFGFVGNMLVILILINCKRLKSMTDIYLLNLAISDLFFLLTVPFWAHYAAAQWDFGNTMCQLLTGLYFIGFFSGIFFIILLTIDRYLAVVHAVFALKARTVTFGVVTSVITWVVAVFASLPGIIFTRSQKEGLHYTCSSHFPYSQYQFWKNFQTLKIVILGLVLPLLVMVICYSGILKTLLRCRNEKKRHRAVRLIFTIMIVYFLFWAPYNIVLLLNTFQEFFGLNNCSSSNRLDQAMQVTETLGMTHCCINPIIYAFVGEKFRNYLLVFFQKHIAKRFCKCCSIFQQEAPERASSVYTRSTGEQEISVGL
- Format: cell membranes, Membrane
- setup.conditions: hek293
test.readout: IC50

• CC(=O)OCC(=O)[C@@]12OC(C)(C)O[C@@H]1C[C@H]1[C@@H]3C[C@H](F)C4=CC(=O)C=C[C@]4(C)[C@@]3(F)[C@@H](O)C[C@@]12C [FLUOCINONIDE] = Not Active
• CN1CCC(=C2c3ccccc3CC(=O)c3sccc32)CC1 [KETOTIFEN] = Not Active
• CC(=O)OCC(=O)[C@@]1(O)CC[C@H]2[C@@H]3CCC4=CC(=O)CC[C@]4(C)[C@@]3(F)[C@@H](O)C[C@@]21C [FLUDROCORTISONE ACETATE] = Not Active

###

- system.name: Cytochrome P450 2C19 (Homo sapiens, UniProt P33261); further: in other assays of this panel Not Active means under 50% inhibition at 10 µM
- Sequence (P33261 whole entry): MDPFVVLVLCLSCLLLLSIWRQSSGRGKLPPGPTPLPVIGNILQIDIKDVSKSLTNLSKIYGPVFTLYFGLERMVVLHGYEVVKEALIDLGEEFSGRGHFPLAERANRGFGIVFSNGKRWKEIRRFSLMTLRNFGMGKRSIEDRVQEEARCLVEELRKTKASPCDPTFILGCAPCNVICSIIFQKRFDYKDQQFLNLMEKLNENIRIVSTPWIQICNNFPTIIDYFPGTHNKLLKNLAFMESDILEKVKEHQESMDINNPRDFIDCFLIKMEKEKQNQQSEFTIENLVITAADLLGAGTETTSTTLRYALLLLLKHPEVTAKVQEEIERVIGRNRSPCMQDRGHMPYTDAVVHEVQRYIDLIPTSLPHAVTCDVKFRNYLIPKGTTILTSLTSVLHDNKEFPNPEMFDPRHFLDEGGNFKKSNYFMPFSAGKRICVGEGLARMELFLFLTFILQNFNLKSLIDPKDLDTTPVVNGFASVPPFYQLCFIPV
- setup.conditions: bti-tn-5b1-4
test.readout: IC50

* CC(C)(C)NCC(O)COc1cccc2c1CC(O)C(O)C2 (configuration not stated) | Not Active
* O=C(O)CCCCC1CCSS1 (configuration not stated) | Not Active
* O=C(O)COc1ccc(C(=O)c2cccs2)c(Cl)c1Cl | Not Active
* C[C@H]1COc2c(N3CCN(C)CC3)c(F)cc3c(=O)c(C(=O)O)cn1c23.C[C@H]1COc2c(N3CCN(C)CC3)c(F)cc3c(=O)c(C(=O)O)cn1c23.O | Not Active
* C[C@H]1O[C@H](O[C@H]2[C@H](O)[C@@H](O)[C@@H](O[C@H]3[C@H](O)[C@@H](O)C(O)O[C@@H]3CO)O[C@@H]2CO)[C@H](O)[C@@H](O)[C@@H]1N[C@H]1C=C(CO)[C@@H](O)[C@H](O)[C@H]1O (some centres not stated) | Not Active
* Cc1c(O)cccc1C(=O)N[C@@H](CSc1ccccc1)[C@H](O)CN1C[C@H]2CCCC[C@H]2C[C@H]1C(=O)NC(C)(C)C | Not Active
* CCc1ccc(CCOc2ccc(CC3SC(=O)NC3=O)cc2)nc1 (configuration not stated) | Not Active
* O=c1[nH]c(=O)n(C2CCCO2)cc1F (configuration not stated) | Not Active
* CN1CCN(C2=Nc3cc(Cl)ccc3Nc3ccccc32)CC1 | Not Active
* Nc1cc(-c2ccncc2)c[nH]c1=O | Not Active
* CCN(CC)CCCC(C)Nc1c2ccc(Cl)cc2nc2ccc(OC)cc12 (configuration not stated) | Not Active
* CN(C)C(=O)C(CCN1CCC(O)(c2ccc(Cl)cc2)CC1)(c1ccccc1)c1ccccc1 [LOPERAMIDE] | Not Active
* CCCNC(=O)NS(=O)(=O)c1ccc(Cl)cc1 [CHLORPROPAMIDE] | Not Active
* NS(=O)(=O)c1cc(C2(O)NC(=O)c3ccccc32)ccc1Cl (configuration not stated) | Not Active
* CN1[C@@H]2CC[C@H]1C[C@@H](OC(c1ccccc1)c1ccccc1)C2 | Not Active
* CC(C)NC[C@H](O)COc1cccc2ccccc12 | Not Active
* CS(=O)(=O)Nc1ccc([N+](=O)[O-])cc1Oc1ccccc1 [NIMESULIDE] | Not Active
